Target Under Test: Human α2δ-1 subunit of Cav2.2 calcium channel (Homo sapiens)
Sequence (P54289 25-1103): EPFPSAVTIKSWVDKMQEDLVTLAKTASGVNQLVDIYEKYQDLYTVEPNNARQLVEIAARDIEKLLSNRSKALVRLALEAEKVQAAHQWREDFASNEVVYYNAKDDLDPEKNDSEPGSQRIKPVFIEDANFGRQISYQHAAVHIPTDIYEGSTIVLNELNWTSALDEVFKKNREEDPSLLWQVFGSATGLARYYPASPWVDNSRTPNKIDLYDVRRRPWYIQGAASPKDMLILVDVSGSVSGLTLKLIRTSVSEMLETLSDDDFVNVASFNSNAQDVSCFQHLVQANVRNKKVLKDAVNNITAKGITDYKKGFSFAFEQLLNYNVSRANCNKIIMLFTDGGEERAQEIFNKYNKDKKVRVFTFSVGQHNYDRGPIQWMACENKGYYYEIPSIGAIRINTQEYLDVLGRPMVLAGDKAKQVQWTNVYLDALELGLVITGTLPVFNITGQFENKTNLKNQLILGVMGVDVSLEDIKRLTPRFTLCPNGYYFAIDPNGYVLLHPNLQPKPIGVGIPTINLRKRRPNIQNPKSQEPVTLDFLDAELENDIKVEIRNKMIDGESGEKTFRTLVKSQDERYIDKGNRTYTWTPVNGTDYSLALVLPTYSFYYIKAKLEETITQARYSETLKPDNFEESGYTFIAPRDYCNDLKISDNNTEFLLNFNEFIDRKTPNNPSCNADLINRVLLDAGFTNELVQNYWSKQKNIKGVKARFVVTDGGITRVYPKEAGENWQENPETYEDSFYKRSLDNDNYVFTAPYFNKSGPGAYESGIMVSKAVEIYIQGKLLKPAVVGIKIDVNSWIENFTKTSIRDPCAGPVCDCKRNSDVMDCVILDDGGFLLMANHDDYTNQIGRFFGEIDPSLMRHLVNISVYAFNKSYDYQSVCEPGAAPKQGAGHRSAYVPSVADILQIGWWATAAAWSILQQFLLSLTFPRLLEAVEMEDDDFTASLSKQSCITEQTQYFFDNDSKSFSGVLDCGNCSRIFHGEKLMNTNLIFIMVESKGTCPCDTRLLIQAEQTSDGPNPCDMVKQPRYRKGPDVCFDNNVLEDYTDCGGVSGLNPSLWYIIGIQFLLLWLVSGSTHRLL
Assay Procedure: biochemical
Assay type: binding
Recorded measurements of Ki, one per entry
Endpoint: Ki

{"Compound": "CCC[C@@H](c1nc2ccc(Br)cc2c(=O)n1CC)N1C[C@H](C)N[C@@H](C)C1", "Target Under Test": "Human α2δ-1 subunit of Cav2.2 calcium channel (Homo sapiens)", "Assay Value": "> 5000 nM"}
{"Compound": "CCC[C@H](c1nc2c(F)cc(Br)cc2c(=O)n1CC)N1CCN[C@H](C)C1", "Target Under Test": "Human α2δ-1 subunit of Cav2.2 calcium channel (Homo sapiens)", "Assay Value": "< 500 nM"}
{"Compound": "CCC[C@H](c1nc2ncc(Br)cc2c(=O)n1CC)N1CCN[C@@H](C)C1", "Target Under Test": "Human α2δ-1 subunit of Cav2.2 calcium channel (Homo sapiens)", "Assay Value": "< 500 nM"}
{"Compound": "CCC[C@H](c1nc2ncc(Br)cc2c(=O)n1CC1CC1)N1CCN[C@@H](C)C1", "Target Under Test": "Human α2δ-1 subunit of Cav2.2 calcium channel (Homo sapiens)", "Assay Value": "< 500 nM"}
{"Compound": "CCC[C@@H](c1nc2ccc(Cl)cc2c(=O)n1CC)N1CCN[C@@H](CF)C1", "Target Under Test": "Human α2δ-1 subunit of Cav2.2 calcium channel (Homo sapiens)", "Assay Value": "> 5000 nM"}
{"Compound": "CCC[C@H](c1nc2ccccc2c(=O)n1CC)N1C[C@@H](C)N[C@@H](C)C1", "Target Under Test": "Human α2δ-1 subunit of Cav2.2 calcium channel (Homo sapiens)", "Assay Value": "< 500 nM"}
{"Compound": "CCCC(c1nc2ccc(N3CCC(N)CC3)cc2c(=O)n1CC)N1C[C@@H](C)N[C@@H](C)C1 (stereo partly shown)", "Target Under Test": "Human α2δ-1 subunit of Cav2.2 calcium channel (Homo sapiens)", "Assay Value": "< 500 nM"}
{"Compound": "CCC[C@H](c1nc2cc(F)c(OC)cc2c(=O)n1CC)N1CCN[C@@H](C)C1", "Target Under Test": "Human α2δ-1 subunit of Cav2.2 calcium channel (Homo sapiens)", "Assay Value": "< 500 nM"}
{"Compound": "CCC[C@H](c1nc2cc(O[C@H](CNC)c3ccccc3)ccc2c(=O)n1C)N1C[C@@H](C)N[C@@H](C)C1", "Target Under Test": "Human α2δ-1 subunit of Cav2.2 calcium channel (Homo sapiens)", "Assay Value": "< 500 nM"}
{"Compound": "CCC[C@H](c1nc2cc(F)c(Cl)cc2c(=O)n1CC)N1CCN[C@@H](C)C1", "Target Under Test": "Human α2δ-1 subunit of Cav2.2 calcium channel (Homo sapiens)", "Assay Value": "< 500 nM"}
